- System: Hep 3B2
- method.description: Growth inhibition of human Hep3B cells incubated for 72 hrs by CCK-8 assay
- Type: functional
The following molecules are shown together with reported GI50 values.
parameter: GI50

molecule	test.target	parameter	reported
Cc1cccc(-c2nn3c(c2-c2ccnc4ccc(C(N)=O)cc24)CCC3)n1 [GALUNISERTIB]	Hep 3B2	GI50	1070 nM
COc1ccc(NS(=O)(=O)c2c[nH]c3ncccc23)cc1	Hep 3B2	GI50	5710 nM
O=S(=O)(Nc1ccc(Cl)cn1)c1c[nH]c2ncccc12	Hep 3B2	GI50	2860 nM
Cc1nc(NS(=O)(=O)c2c[nH]c3ncccc23)ccc1Cl	Hep 3B2	GI50	2280 nM

Data origin, for the record: ChEMBL document CHEMBL6182878
